Every entry's value here was drawn from ChEMBL document CHEMBL3868615.

Target: Muscarinic acetylcholine receptor M2 (Homo sapiens, UniProt P08172)
Sequence (P08172 whole entry): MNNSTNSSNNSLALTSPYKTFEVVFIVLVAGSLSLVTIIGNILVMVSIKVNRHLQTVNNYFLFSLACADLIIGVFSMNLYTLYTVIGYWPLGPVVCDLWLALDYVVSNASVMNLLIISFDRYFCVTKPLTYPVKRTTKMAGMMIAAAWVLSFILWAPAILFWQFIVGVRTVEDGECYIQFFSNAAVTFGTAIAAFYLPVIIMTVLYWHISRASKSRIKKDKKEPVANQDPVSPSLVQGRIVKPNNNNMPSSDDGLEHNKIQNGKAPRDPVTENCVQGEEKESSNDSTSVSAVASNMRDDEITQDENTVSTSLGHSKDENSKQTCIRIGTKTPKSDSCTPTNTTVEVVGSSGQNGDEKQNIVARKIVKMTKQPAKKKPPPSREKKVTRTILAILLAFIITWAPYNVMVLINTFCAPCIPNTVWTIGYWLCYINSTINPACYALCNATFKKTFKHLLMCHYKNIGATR
pKi: −log10 of the molar value.
property.measured: pKi

1. CN1CC[C@H]2CC(=O)[C@H](Cc3ccccc3)[C@H]3CCC[C@@H]1[C@H]23 : < 5.00

// moving on: another record for pKi
Determine from records and report pKi for `CCCN1CC[C@H]2c3cc4ccc(C(F)(F)F)cc4nc3[C@H](CC)[C@H]3CCC[C@@H]1[C@@H]32` < 5.00

###

This section lists Ki readings for Kappa-type opioid receptor (Homo sapiens).
Give the value, in units of nM, as a plain number.

Recorded results for 3 molecules are shown here.
1) CC[C@H]1c2nc3ccccc3cc2[C@@H]2CCN(C)[C@@H]3CCC[C@H]1[C@H]32 : 3490
2) CCCN1CC[C@H]2c3cc4cccc(OC)c4nc3[C@H](CC)[C@H]3CCC[C@@H]1[C@@H]32 : 1690
3) CC(C)CCN1CC[C@H]2CC(=O)[C@H](Cc3ccccc3)[C@H]3CCC[C@@H]1[C@H]23 : 711

Determine from records and report Ki for `COc1ccc(C[C@H]2C(=O)C[C@@H]3CCN(CC4CCCCC4)[C@@H]4CCC[C@H]2[C@@H]34)cc1` 1600
